Kindly supply the reported R. sanguineus Mortality (%) 48 h values for the records listed here.
Test system: Brown Dog Tick (Rhipicephalus sanguineus)
Procedure Details: Rapid screening protocol for topical application on brown dog ticks
Assay type: in vivo
Condition Info: 48 h; Laboratory 2 F data
Could you give me the number in %? Just the number is fine.

Missing value: R. sanguineus Mortality (%) 48 h, Brown Dog Tick (Rhipicephalus sanguineus), entry "CC/C(=N\OCc1ccc(C(F)(F)F)cc1)c1ccc(C(F)(F)F)cc1NS(=O)(=O)C(F)(F)F" . Fill in?
67

Request: C/C(=N\OCC1CCCO1)c1cc(Cl)ccc1NS(=O)(=O)C(F)(F)F (stereo not drawn)
95

Request: "CCC/C(=N\OC(C)C)c1cc(Cl)ccc1NS(=O)(=O)C(F)(F)F"
92

Request: "COCCO/N=C(\C)c1cc(Cl)ccc1NS(=O)(=O)C(F)(F)F"
100

Request: "C/C(=N\OCC1CCCC1)c1cc(Cl)ccc1NS(=O)(=O)C(F)(F)F"
100

Request: "O=S(=O)(Nc1ccc(Cl)cc1/C(=N/OC1CCCC1)C1CCCCC1)C(F)(F)F"
90

Request: "CC/C(=N\OCCOC)c1cc(Cl)ccc1NS(=O)(=O)C(F)(F)F"
100

Request: "C/C(=N\OCc1ccc(Cl)cc1)c1ccc(C(F)(F)F)cc1NS(=O)(=O)C(F)(F)F"
75

Request: "CC(C)(C)/C(=N\Oc1ccc(F)cc1)c1cc(Cl)ccc1NS(=O)(=O)C(F)(F)F"
35

Request: "CC/C(=N\OC1CCCC1)c1cc(Cl)ccc1NS(=O)(=O)C(F)(F)F"
92

Request: "C/C(=N\Oc1ccc(Cl)cc1)c1ccc(C(F)(F)F)cc1NS(=O)(=O)C(F)(F)F"
5

Request: "CC/C(=N\OCC1CCCC1)c1cc(Cl)ccc1NS(=O)(=O)C(F)(F)F"
100

Request: "CC/C(=N\OCC1CCCCC1)c1cc(Cl)ccc1NS(=O)(=O)C(F)(F)F"
100

Request: "CC/C(=N\OCc1ccc(C(F)(F)F)cc1)c1cc(Cl)ccc1NS(=O)(=O)C(F)(F)F"
95

Request: "CCC/C(=N\OC1CCCC1)c1cc(Cl)ccc1NS(=O)(=O)C(F)(F)F"
97

Request: "CC/C(=N\OCc1cccs1)c1cc(Cl)ccc1NS(=O)(=O)C(F)(F)F"
100

Request: "CC/C(=N\OCC1CCCCC1)c1ccc(C(F)(F)F)cc1NS(=O)(=O)C(F)(F)F"
32

Request: "C/C(=N\OCc1cccnc1)c1cc(Cl)ccc1NS(=O)(=O)C(F)(F)F"
40

Request: "CC/C(=N\OCc1ccccn1)c1cc(Cl)ccc1NS(=O)(=O)C(F)(F)F"
87

Request: "C/C(=N\OCc1cccs1)c1cc(Cl)ccc1NS(=O)(=O)C(F)(F)F"
75

Request: "CC/C(=N\OCC(F)(F)F)c1cc(Cl)ccc1NS(=O)(=O)C(F)(F)F"
92

Request: "CC/C(=N\OC(C)(C)C)c1cc(Cl)ccc1NS(=O)(=O)C(F)(F)F"
95

Request: "CC/C(=N\OCc1ccc(Cl)cc1)c1ccc(C(F)(F)F)cc1NS(=O)(=O)C(F)(F)F"
62

Request: "CC/C(=N\Oc1ccc(F)cc1)c1ccc(C(F)(F)F)cc1NS(=O)(=O)C(F)(F)F"
20

Request: "CC/C(=N\OCc1ccccc1C(F)(F)F)c1cc(Cl)ccc1NS(=O)(=O)C(F)(F)F"
82

Request: "CC/C(=N\OCC1CC1)c1cc(Cl)ccc1NS(=O)(=O)C(F)(F)F"
100

Request: "C/C(=N\OCC1CC1)c1cc(Cl)ccc1NS(=O)(=O)C(F)(F)F"
100

Request: "CC/C(=N\OCc1ccc(C(F)(F)F)cc1C(F)(F)F)c1cc(Cl)ccc1NS(=O)(=O)C(F)(F)F"
80

Request: CC(C)ON=C(c1cc(Cl)ccc1NS(=O)(=O)C(F)(F)F)C1CCCCC1 (racemic)
100

Request: "CCO/N=C(\c1ccccc1)c1cc(Cl)ccc1NS(=O)(=O)C(F)(F)F"
85

Request: "C/C(=N\OCc1ccc(Cl)s1)c1cc(Cl)ccc1NS(=O)(=O)C(F)(F)F"
100

Request: "CC(C)/C(=N\Oc1ccc(F)cc1)c1cc(Cl)ccc1NS(=O)(=O)C(F)(F)F"
72

Request: "CCC/C(=N\OCC)c1cc(Cl)ccc1NS(=O)(=O)C(F)(F)F"
95
